Molecular target: anti-histamine antibody conjugated to HRP
Assay: Refined 5 min histamine ELISA with anti-histamine antibody conjugated to HRP
Settings: Hill equation fit without the 0 nM histamine data point, FIG. 21; read-out: dissociation constant (Kd)
MEASURED ENDPOINT: Kd (µM)

[a] NC(Cc1c[nH]cn1)C(=O)NCCOCCOCCOCCOCCOCCOCCNC(=O)CCCCC1SC[C@H]2NC(=O)N[C@@H]12 (some centres unmarked)
[b] NC(=O)C(CCCCNC(=O)C(CCCCNC(=O)C(N)Cc1c[nH]cn1)NC(=O)C(N)Cc1c[nH]cn1)NC(=O)CCOCCOCCOCCOCCNC(=O)CCCCC1SC[C@H]2NC(=O)N[C@@H]12 (some centres unmarked)
Decide: a or b , by lowest recorded Kd. Response format: the label of the selected entry.
b
(b: 0.28 µM, a: 0.449 µM)
